// data source = ChEMBL document CHEMBL2424622

Recorded inhibition by entry
biological target: Myotonin-protein kinase (Homo sapiens) (UniProt Q09013); test: Competitive binding affinity to DMPK (unknown origin) at 10 uM in presence of ATP relative to control
Sequence (Q09013 whole entry): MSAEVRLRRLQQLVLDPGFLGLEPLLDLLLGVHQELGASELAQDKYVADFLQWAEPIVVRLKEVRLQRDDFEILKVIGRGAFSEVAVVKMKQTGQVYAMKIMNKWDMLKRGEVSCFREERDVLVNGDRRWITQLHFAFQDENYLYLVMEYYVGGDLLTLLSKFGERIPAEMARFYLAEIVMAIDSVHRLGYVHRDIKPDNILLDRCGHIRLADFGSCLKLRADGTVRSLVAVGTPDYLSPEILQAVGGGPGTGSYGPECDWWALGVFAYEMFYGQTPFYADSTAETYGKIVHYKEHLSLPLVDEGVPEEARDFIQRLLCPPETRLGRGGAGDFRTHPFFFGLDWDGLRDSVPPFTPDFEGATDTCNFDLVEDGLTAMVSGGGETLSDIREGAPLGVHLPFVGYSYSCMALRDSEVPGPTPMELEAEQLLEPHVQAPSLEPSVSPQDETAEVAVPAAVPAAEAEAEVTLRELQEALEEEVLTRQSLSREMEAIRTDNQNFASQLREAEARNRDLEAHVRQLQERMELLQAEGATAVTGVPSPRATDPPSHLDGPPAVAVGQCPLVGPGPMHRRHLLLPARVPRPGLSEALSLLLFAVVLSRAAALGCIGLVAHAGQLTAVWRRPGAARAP
measure: inhibition

smiles_notation=O[C@H]1CC[C@H](Nc2nccc(-n3nnc4ccccc43)n2)CC1 measured_value="< 50%"
smiles_notation=O[C@H]1CC[C@H](Nc2nccc(-c3n[nH]c4ccccc34)n2)CC1 measured_value=80%
smiles_notation=O=C([C@H]1CC[C@H](Nc2nccc(-n3nnc4ccccc43)n2)CC1)N1CCOCC1 measured_value="< 50%"
smiles_notation=O[C@H]1CC[C@H](Nc2nccc(-n3ncc4ccccc43)n2)CC1 measured_value="< 50%"
smiles_notation=O[C@H]1CC[C@H](Nc2nccc(-n3ccc4ccccc43)n2)CC1 measured_value="< 50%"
smiles_notation=N[C@H]1CC[C@H](Nc2nccc(-n3nnc4ccccc43)n2)CC1 measured_value="< 50%"

###

Property: inhibition; scope: individual compounds
molecular target: Mitogen-activated protein kinase 8 (Homo sapiens); experiment: Competitive binding affinity to JNK1 (unknown origin) at 10 uM in presence of ATP relative to control
Sequence (P45983 whole entry): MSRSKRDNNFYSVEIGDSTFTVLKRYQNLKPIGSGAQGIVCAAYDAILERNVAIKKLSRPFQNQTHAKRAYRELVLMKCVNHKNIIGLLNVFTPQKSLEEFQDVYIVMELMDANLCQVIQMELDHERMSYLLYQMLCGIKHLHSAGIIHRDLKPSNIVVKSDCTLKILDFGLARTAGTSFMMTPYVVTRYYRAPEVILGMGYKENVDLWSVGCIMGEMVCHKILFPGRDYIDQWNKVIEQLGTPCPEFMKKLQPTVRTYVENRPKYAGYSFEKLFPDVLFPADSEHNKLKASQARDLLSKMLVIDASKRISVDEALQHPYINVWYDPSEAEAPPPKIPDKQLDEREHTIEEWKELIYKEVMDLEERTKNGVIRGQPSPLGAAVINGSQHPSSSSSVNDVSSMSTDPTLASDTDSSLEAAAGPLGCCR
measure: inhibition

smiles_notation=CS(=O)(=O)CCCOc1cccc2c1ccn2-c1ccnc(N[C@H]2CC[C@H](C(=O)N3CCC(O)CC3)CC2)n1 measured_value="> 85%"
smiles_notation=N[C@H]1CC[C@H](Nc2nccc(-n3nnc4ccccc43)n2)CC1 measured_value=99%
smiles_notation=O[C@H]1CC[C@H](Nc2nccc(-n3nnc4ccccc43)n2)CC1 measured_value=99%
smiles_notation=O[C@H]1CC[C@H](Nc2nccc(-c3n[nH]c4ccccc34)n2)CC1 measured_value=100%
smiles_notation=O=C([C@H]1CC[C@H](Nc2nccc(-n3nnc4ccccc43)n2)CC1)N1CCOCC1 measured_value=100%
smiles_notation=O[C@H]1CC[C@H](Nc2nccc(-n3ccc4ccccc43)n2)CC1 measured_value=98%
smiles_notation=O[C@H]1CC[C@H](Nc2nccc(-n3ncc4ccccc43)n2)CC1 measured_value=99%

###

biological target: Ribosomal protein S6 kinase alpha-4 (Homo sapiens); assay: Competitive binding affinity to RPS6KA4 kinase domain 1 (unknown origin) at 10 uM in presence of ATP relative to control
inhibition values, listed per item
measure: inhibition

smiles_notation=O[C@H]1CC[C@H](Nc2nccc(-c3n[nH]c4ccccc34)n2)CC1 measured_value=99%
smiles_notation=O[C@H]1CC[C@H](Nc2nccc(-n3nnc4ccccc43)n2)CC1 measured_value="< 50%"
smiles_notation=O[C@H]1CC[C@H](Nc2nccc(-n3ncc4ccccc43)n2)CC1 measured_value="< 50%"
smiles_notation=O[C@H]1CC[C@H](Nc2nccc(-n3ccc4ccccc43)n2)CC1 measured_value="< 50%"

###

biological target: Tyrosine-protein kinase TXK (Homo sapiens); experiment: Competitive binding affinity to TXK (unknown origin) at 10 uM in presence of ATP relative to control
Readings of inhibition for the listed molecules
measure: inhibition

smiles_notation=O=C([C@H]1CC[C@H](Nc2nccc(-n3nnc4ccccc43)n2)CC1)N1CCOCC1 measured_value="< 50%"
smiles_notation=O[C@H]1CC[C@H](Nc2nccc(-n3ncc4ccccc43)n2)CC1 measured_value="< 50%"
smiles_notation=O[C@H]1CC[C@H](Nc2nccc(-c3n[nH]c4ccccc34)n2)CC1 measured_value="< 50%"
smiles_notation=N[C@H]1CC[C@H](Nc2nccc(-n3nnc4ccccc43)n2)CC1 measured_value="< 50%"
smiles_notation=O[C@H]1CC[C@H](Nc2nccc(-n3nnc4ccccc43)n2)CC1 measured_value="< 50%"
smiles_notation=O[C@H]1CC[C@H](Nc2nccc(-n3ccc4ccccc43)n2)CC1 measured_value="< 50%"
